Hello, the source for this data is the RNAGym collection of RNA variant scans (doi:10.1021/acssynbio.7b00057), in case you need it.

B1: Pistol ribozyme (parent)
chain: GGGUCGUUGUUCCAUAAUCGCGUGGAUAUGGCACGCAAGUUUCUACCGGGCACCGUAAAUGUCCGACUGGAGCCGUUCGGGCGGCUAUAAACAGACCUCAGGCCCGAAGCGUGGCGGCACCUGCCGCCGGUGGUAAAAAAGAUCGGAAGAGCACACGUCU

# Variants of: B1
# ASSAY COMMENT: aptazyme ON/OFF ratio, guanine; higher = stronger switching; co-transcriptional cleavage with and without guanine

{"MUTATION LABEL": "U7G U8C G9U U10C U11A C12A C13G", "aptazyme ON/OFF ratio": 1.31}
{"MUTATION LABEL": "U8A G9U U10A C12G C13G", "aptazyme ON/OFF ratio": 1.28}
{"MUTATION LABEL": "U10C C12G", "aptazyme ON/OFF ratio": 1.36}
{"MUTATION LABEL": "U7A U8G G9A U11G C12U", "aptazyme ON/OFF ratio": 1.36}
{"MUTATION LABEL": "U8A G9A U10G U11C", "aptazyme ON/OFF ratio": 1.05}
{"MUTATION LABEL": "U7A U10A U11C", "aptazyme ON/OFF ratio": 1}
{"MUTATION LABEL": "U10A U11G C12A C13A", "aptazyme ON/OFF ratio": 1.04}
{"MUTATION LABEL": "U7G U8G G9A U10G C12G C13A", "aptazyme ON/OFF ratio": 1.11}
{"MUTATION LABEL": "U7C U8A G9A U10G U11C C13U", "aptazyme ON/OFF ratio": 1}
{"MUTATION LABEL": "U8G G9A U11A C13A", "aptazyme ON/OFF ratio": 1.14}
{"MUTATION LABEL": "U7G U11A C12U C13A", "aptazyme ON/OFF ratio": 1.19}
{"MUTATION LABEL": "G9C U10G U11A C12A C13U", "aptazyme ON/OFF ratio": 1.52}
{"MUTATION LABEL": "U7C U8A G9U U10A C12U C13U", "aptazyme ON/OFF ratio": 1.19}
{"MUTATION LABEL": "U7G U8A G9C U11C C12U C13A", "aptazyme ON/OFF ratio": 1.06}
{"MUTATION LABEL": "U7A G9C U11G C13A", "aptazyme ON/OFF ratio": 1.13}
{"MUTATION LABEL": "U7C U8A U10G C13A", "aptazyme ON/OFF ratio": 1.52}
{"MUTATION LABEL": "U8C G9A U11G C12G C13A", "aptazyme ON/OFF ratio": 1.19}
{"MUTATION LABEL": "U7G U8A G9C U10C C12A C13G", "aptazyme ON/OFF ratio": 1.03}
{"MUTATION LABEL": "U7C U8C G9C U10G U11C C13G", "aptazyme ON/OFF ratio": 1.08}
{"MUTATION LABEL": "U7G U8A G9U U11A C12A", "aptazyme ON/OFF ratio": 1.14}
{"MUTATION LABEL": "U7A U8G G9C U10A U11A C12A C13G", "aptazyme ON/OFF ratio": 1.35}
{"MUTATION LABEL": "U7A U8A U10G U11G C12G C13U", "aptazyme ON/OFF ratio": 1.4}
{"MUTATION LABEL": "U7C U8C U10G U11C C12U C13G", "aptazyme ON/OFF ratio": 1.11}
{"MUTATION LABEL": "U7G U8A G9U U10C C12G C13A", "aptazyme ON/OFF ratio": 1.28}
{"MUTATION LABEL": "U7C G9A U11C C12G C13G", "aptazyme ON/OFF ratio": 1.17}
{"MUTATION LABEL": "U7G U8A G9A U11A C13U", "aptazyme ON/OFF ratio": 1.12}
{"MUTATION LABEL": "U8C G9A U10C U11G", "aptazyme ON/OFF ratio": 1.19}
{"MUTATION LABEL": "U7C U8C G9C U10G U11A C13A", "aptazyme ON/OFF ratio": 1.14}
{"MUTATION LABEL": "U7G G9U U10C U11G", "aptazyme ON/OFF ratio": 2.9}
{"MUTATION LABEL": "U7A U8C G9A U10C U11C C12U C13U", "aptazyme ON/OFF ratio": 1.04}
{"MUTATION LABEL": "U7C U8A G9C U11A C12A", "aptazyme ON/OFF ratio": 1.1}
{"MUTATION LABEL": "U8G G9U C12U C13A", "aptazyme ON/OFF ratio": 1.22}
